measured-on: C3a receptor (Homo sapiens, UniProt Q16581)
assay-explanation: xCELLigence, antagonism of peptide-evoked response by C3a receptor antagonist SB 290157 in HMDM
Format: cell-based
condition: agonist peptide 54 at about its EC50, antagonist pre-incubated 1 h, n=3–5
measured-endpoint: IC50 (nM)
Report the figure in nM without appending any unit label.

Please list IC50 recorded for the compound N=C(N)NCCC[C@H](NC(=O)COCC(c1ccccc1)c1ccccc1)C(=O)O [SB 290157] 29

----------
measured-on: C3a receptor (Homo sapiens, UniProt Q16581)
assay-explanation: xCELLigence, antagonism of peptide-evoked response by C3a receptor antagonist SB 290157 in HMDM
Assay type: cell-based
condition: agonist peptide 47 at about its EC50, antagonist pre-incubated 1 h, n=3–5
measured-endpoint: pIC50
pIC50 is defined as minus the log10 of a concentration measured in mol/L.

Assign pIC50 to the following record: N=C(N)NCCC[C@H](NC(=O)COCC(c1ccccc1)c1ccccc1)C(=O)O 7.36

----------
measured-on: UniProt:Q16581
assay-explanation: xCELLigence, antagonism of peptide-evoked response by C3a receptor antagonist SB 290157 in HMDM
Type: cell-based
condition: agonist peptide 20 at about its EC50, antagonist pre-incubated 1 h, n=3–5
Protocol: HMDM were seeded overnight at 30,000 cells/well in 384-well E-Plates (Roche). Approximately 24 h later, HMDM media were exchanged for serum-free IMDM and equilibrated at 37 °C and 5% CO2 for 2 h prior to ligand addition. Ligands were prepared at a final DMSO concentration of 0.5% (or less) in serum-free IMDM. […] After agonist addition, measurements were taken continuously for ~1.5 h at 37 °C. […]
measured-endpoint: IC50 (nM)
// units = nM; emit number, no label

Provide measured IC50 value, entry: N=C(N)NCCC[C@H](NC(=O)COCC(c1ccccc1)c1ccccc1)C(=O)O [SB 290157] 1.3

----------
measured-on: human monocyte-derived macrophages (HMDM) (Homo sapiens, UniProt Q16581)
Sequence (Q16581 1-482): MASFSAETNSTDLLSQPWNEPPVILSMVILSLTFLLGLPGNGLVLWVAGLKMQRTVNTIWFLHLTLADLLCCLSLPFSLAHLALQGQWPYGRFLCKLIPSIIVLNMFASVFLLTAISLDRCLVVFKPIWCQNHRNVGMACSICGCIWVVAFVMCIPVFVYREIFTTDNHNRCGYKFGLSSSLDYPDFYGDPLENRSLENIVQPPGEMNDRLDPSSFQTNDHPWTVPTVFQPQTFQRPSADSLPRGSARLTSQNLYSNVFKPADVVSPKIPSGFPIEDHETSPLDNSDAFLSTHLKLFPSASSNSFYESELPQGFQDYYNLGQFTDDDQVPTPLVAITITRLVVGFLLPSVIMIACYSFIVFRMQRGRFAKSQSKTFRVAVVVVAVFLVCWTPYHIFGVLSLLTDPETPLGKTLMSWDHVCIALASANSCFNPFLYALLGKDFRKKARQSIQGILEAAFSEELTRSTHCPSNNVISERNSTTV
assay-explanation: xCELLigence cell impedance assay, agonist activity on HMDM
Assay type: cell-based
condition: xCELLigence impedance, dose-response, serum-free IMDM, 37 °C, n=3–5
Ends that are not written are not given here.
measured-endpoint: EC50 (µM)
Express your answer in µM, writing the number without its unit.

• Ac-RLYPLWR-OH [Peptide 47, Ac-RLYPLWR] = 1.2
• Ac-NNYNLWR-OH [Peptide 20, Ac-NNYNLWR] = 5.8
• Ac-RHYPLWR-OH [Peptide 31, Ac-RHYPLWR] = 1.1
• Ac-TIYRLWR [Peptide 49, Ac-TIYRLWR] = 17

Please find the next substance below.
Answer with the recorded EC50 of Ac-RYPLWR-OH [Peptide 54, Ac-RYPLWR] only. 3

----------
measured-on: C3a receptor (Homo sapiens)
assay-explanation: xCELLigence, antagonism of peptide-evoked response by C3a receptor antagonist SB 290157 in HMDM
Type: cell-based
condition: agonist peptide 49 at about its EC50, antagonist pre-incubated 1 h, n=3–5
measured-endpoint: IC50
Note: state the figure and append the unit.

Return the recorded IC50 value; entry: N=C(N)NCCC[C@H](NC(=O)COCC(c1ccccc1)c1ccccc1)C(=O)O [SB 290157] 15 nM
